experimental-target: T1, human GITR on naïve CD4+ T cells (human, UniProt Q9Y5U5 26-241)
T1 sequence: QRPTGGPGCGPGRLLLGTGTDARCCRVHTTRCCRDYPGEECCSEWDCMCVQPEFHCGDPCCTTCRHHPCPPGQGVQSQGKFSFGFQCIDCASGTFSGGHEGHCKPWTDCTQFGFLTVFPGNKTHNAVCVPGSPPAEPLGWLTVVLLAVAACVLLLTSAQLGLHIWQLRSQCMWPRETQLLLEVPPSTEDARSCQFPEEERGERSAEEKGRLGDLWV
assay-details: cell-based or functional assay
quantity-measured: proliferation of naïve CD4+ T cells, mean, at 5.2 ng/mL Ab
Give bare numbers.

In the examples that follow, each entry is paired with its recorded proliferation of naïve CD4+ T cells, mean, at 5.2 ng/mL Ab.
query: Output proliferation of naïve CD4+ T cells, mean, at 5.2 ng/mL Ab of 1D8 (antibody, V domains shown, Parental rodent anti-human GITR monoclonal antibody from a hybridoma; kappa VL; also called 1D8.B5) VH: QVTLKESGPGILKPSQTLSLTCSFSGFSLSTSGMGVGWIRQPSGKGLEWLAHIWWDDDKYYSPSLKSQLTISKDTSRNQVFLKITSLDTADTATYYCVRSYYYGSSGAMDYWGQGTSVTVSS VL: DIVMTQTPLSLPVSLGDQASISCRSSQSLVHSDGNTYLHWYLQKPGQSPKLLIYKVSKRFSGVPDRFSGSGSGTDFTLKISRVEAEDLGVYFCSQSTHVPPTFGGGTKLEIKR
result: 98200

query: Output proliferation of naïve CD4+ T cells, mean, at 5.2 ng/mL Ab of 35D8 (antibody, V domains shown, Parental rodent anti-human GITR monoclonal antibody from a hybridoma; kappa VL; also called 35D8.B10) VH: EVQLQESGPSLVKPSQTLSLTCSVTGDSITSGYWNWIRKFPGNKLEYMGYISYSGSTYYNPSLRGRISITRDTSKSQYYLQLSSVTTEDTATYYCSRRHLGSGYGWFAYWGQGTLVTVSA VL: DIVMTQSHKFMSTSVGDRVSITCKASQDVNTAVAWYQQKPGQSPKLLIYWASTRHTGVPDRFTGSGSGTDYALTINSVQAEDLALYYCQQHSYTPPWTFGGGTKLEIRR
result: 71400

query: Output proliferation of naïve CD4+ T cells, mean, at 5.2 ng/mL Ab of 49A1 (antibody, V domains shown, Parental rodent anti-human GITR monoclonal antibody from a hybridoma; kappa VL; also called 49A1.B1) VH: EVQLQESGPSLVKPSQTLSLTCSVTGDSITSGYWNWIRKFPGNKFEYMGFISYSGNTYYNPSLRSRISITRDTSKNQYFLHLNSVTTEDTATYYCSRRHLISGYGWFAYWGQGTLVTVSA VL: VIVMTQSHKFMSTSIGDRVNITCKASQDVISAVAWYQQKPGQSPKLLIYWASTRHTGVPDRFTGSGSGTDFTLTINSVQAEDRALYYCQQHSYTPPWTFGGGTNLEIKR
result: 72200

Each binder below has a reported value. Please supply its proliferation of naïve CD4+ T cells, mean, at 5.2 ng/mL Ab.
1. 9E5 (antibody, V domains shown, Parental rodent anti-human GITR monoclonal antibody from a hybridoma; kappa VL; also called 9E5.C1) VH: QVTLKESGPGILQPSQTLSLTCTFSGFSLSTYGVGVGWIRQPSGKGLEWLANIWWDDDNYYNPSLIHRLTVSKDTSNNQAFLKITNVDTAETATYYCAQIKEPRDWFFEFWGPGTMVSVSS VL: DIQMTQTPSSMPASLGERVTIFCRASQGVNNFLTWYQQKPDGTIKPLIFYTSNLQSGVPSRFSGSGSGTDYSLSISSLEPEDFAMYYCQQYHGFPNTFGAGTKLELKR
2. 17F10 (antibody, V domains shown, Parental rodent anti-human GITR monoclonal antibody from a hybridoma; kappa VL; also called 17F10.B1) VH: EVKLVESGGGFVKPGGSLKLSCAASGFTVRNYAMSWVRQTPEKRLEWVASISTGDRSYLPDSMKGRFTISRDNARNILYLQMSSLRSEDTAIYYCQRYFDFDSFAFWGQGTLVTVSA VL: DIQMTQTPSSLSASLGDRVTISCRASQDINNFLNWYQQKPDGSLKLLIYYTSKLHSGVPSRFSGSGSGTDFSLTISNLDQEDVATYFCQQGHTLPPTFGGGTKLEVKR
3. 31H6 (antibody, V domains shown, Parental rodent anti-human GITR monoclonal antibody from a hybridoma; kappa VL; also called 31H6.B7) VH: QVTLKESGPGILQPSQTLSLTCTFSGFSLSTYGVGVGWIRQPSGKGLEWLANIWWDDDKYYNPSLKNRLTISKDTSNNQAFLKITNVDTAETATYYCAQIKEPRDWFFEFWGPGTMVSVSS VL: DIQMTQTPSSMPASLGERVTIFCRASQGVNNYLTWYQQKPDGTIKPLIFYTSNLQSGVPSRFSGSGSGTDYSLSISSLEPEDFAMYYCQQYHGFPNTFGAGTKLELKR

result:
1. 77700
2. 77800
3. 79600
